Biological target: CYP3A4 (C64/C468 mutant) (Homo sapiens, UniProt P08684, form not given/S18F)
Assay: Ligand-induced spin shift, absorbance titration
Format: binding
Details: human, purified CYP3A4(C64/C468) mutant protein, pH 7.4

| compound | Kd, µM |
| --- | --- |
| C[C@]12CC[C@H]3[C@@H](CCC4=CC(=O)CC[C@@]43C)[C@@H]1CC[C@@H]2O [Testosterone, testosterone] | 39 |

----------
Form field: τav (average phosphorescence lifetime with ligand) (one value per entry).
Molecular target: double-labeled CYP3A4 (C64/C468)-ER/DY (Homo sapiens, UniProt P08684, S18F, form not given)
Sequence (P08684 13-503 S18F, form open): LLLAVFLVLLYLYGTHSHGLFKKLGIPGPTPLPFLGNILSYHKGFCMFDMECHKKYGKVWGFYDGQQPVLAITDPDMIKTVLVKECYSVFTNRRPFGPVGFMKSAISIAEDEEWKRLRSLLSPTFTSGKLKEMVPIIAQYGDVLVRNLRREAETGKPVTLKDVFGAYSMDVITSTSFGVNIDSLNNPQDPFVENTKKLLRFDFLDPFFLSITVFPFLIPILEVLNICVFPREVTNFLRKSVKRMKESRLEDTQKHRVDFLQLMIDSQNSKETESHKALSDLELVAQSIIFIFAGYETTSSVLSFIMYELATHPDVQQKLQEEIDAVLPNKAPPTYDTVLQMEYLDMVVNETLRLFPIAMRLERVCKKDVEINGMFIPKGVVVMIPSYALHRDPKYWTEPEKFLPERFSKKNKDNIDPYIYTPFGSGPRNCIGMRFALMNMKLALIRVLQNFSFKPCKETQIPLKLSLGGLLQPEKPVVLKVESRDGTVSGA
Assay: Time-resolved LRET (phosphorescence lifetime measurements)
Conditions: Table S1; (C64/C468)-ER/DY; same ligand concentrations
Excerpt: The excitation wavelength was set to 540 nm.
Counter-ions that a name gives are not always drawn.
test.readout: τav (average phosphorescence lifetime with ligand) (µs)

| compound | unit.abbreviation | endpoint.result |
| --- | --- | --- |
| CC(C)C[C@H]1C(=O)N2CCC[C@H]2[C@]2(O)O[C@](NC(=O)[C@@H]3C=C4c5cccc6[nH]c(Br)c(c56)C[C@H]4N(C)C3)(C(C)C)C(=O)N12 [Bromocriptine, Bromocriptine mesylate] | µs | 131 |
| OCCCCc1ccc2ccc3cccc4ccc1c2c34 | µs | 138 |
| C[C@]12CC[C@H]3[C@@H](CCC4=CC(=O)CC[C@@]43C)[C@@H]1CC[C@@H]2O | µs | 171 |
| O=c1cc(-c2ccccc2)oc2c1ccc1ccccc12 | µs | 168 |
| CC(C)CCC[C@@H](C)[C@H]1CC[C@H]2[C@@H]3CC=C4C[C@@H](O)CC[C@]4(C)[C@H]3CC[C@]12C | µs | 173 |

----------
Form field: R (interprobe distance with ligand), steady-state measurements (one value per entry).
Molecular target: double-labeled CYP3A4 (C64/C468)-DY/ER (Homo sapiens, UniProt P08684, S18F, form not given)
Sequence (P08684 13-503 S18F, form open): as above
Assay: Steady-state LRET titration (delayed emission)
Format: binding
Conditions: Table S2; C64/C468-DY/ER; same ligand concentrations
Structures can show the parent of a compound that is named as a salt.
test.readout: R (interprobe distance with ligand), steady-state measurements (Å)

| molecule | endpoint.result |
| --- | --- |
| O=c1cc(-c2ccccc2)oc2c1ccc1ccccc12 | 38.8 |
| OCCCCc1ccc2ccc3cccc4ccc1c2c34 | 35.8 |
| CC(C)C[C@H]1C(=O)N2CCC[C@H]2[C@]2(O)O[C@](NC(=O)[C@@H]3C=C4c5cccc6[nH]c(Br)c(c56)C[C@H]4N(C)C3)(C(C)C)C(=O)N12 [Bromocriptine, Bromocriptine mesylate] | 35.1 |
| CC(C)CCC[C@@H](C)[C@H]1CC[C@H]2[C@@H]3CC=C4C[C@@H](O)CC[C@]4(C)[C@H]3CC[C@]12C | 40.8 |
| C[C@]12CC[C@H]3[C@@H](CCC4=CC(=O)CC[C@@]43C)[C@@H]1CC[C@@H]2O | 40.4 |

----------
Target: double-labeled CYP3A4 C377/C468-DY/ER (Homo sapiens, UniProt P08684, S18F, form not given)
Assay: Steady-state LRET titration (delayed emission)
Assay type: binding
Details: Table S2; protein C377/C468-ER/DY; same ligand concentrations
Counter-ions that a name gives are not always drawn.

| compound | ΔR, steady-state measurements (Å) |
| --- | --- |
| CC(C)CCC[C@@H](C)[C@H]1CC[C@H]2[C@@H]3CC=C4C[C@@H](O)CC[C@]4(C)[C@H]3CC[C@]12C | 0.5 |
| O=c1cc(-c2ccccc2)oc2c1ccc1ccccc12 | 0.5 |
| OCCCCc1ccc2ccc3cccc4ccc1c2c34 | −0.2 |
| CC(C)C[C@H]1C(=O)N2CCC[C@H]2[C@]2(O)O[C@](NC(=O)[C@@H]3C=C4c5cccc6[nH]c(Br)c(c56)C[C@H]4N(C)C3)(C(C)C)C(=O)N12 [Bromocriptine, Bromocriptine mesylate] | 0.0 |
| C[C@]12CC[C@H]3[C@@H](CCC4=CC(=O)CC[C@@]43C)[C@@H]1CC[C@@H]2O | 2.0 |
